# study system: Mu-type opioid receptor (Homo sapiens)
# Sequence (P35372 whole entry): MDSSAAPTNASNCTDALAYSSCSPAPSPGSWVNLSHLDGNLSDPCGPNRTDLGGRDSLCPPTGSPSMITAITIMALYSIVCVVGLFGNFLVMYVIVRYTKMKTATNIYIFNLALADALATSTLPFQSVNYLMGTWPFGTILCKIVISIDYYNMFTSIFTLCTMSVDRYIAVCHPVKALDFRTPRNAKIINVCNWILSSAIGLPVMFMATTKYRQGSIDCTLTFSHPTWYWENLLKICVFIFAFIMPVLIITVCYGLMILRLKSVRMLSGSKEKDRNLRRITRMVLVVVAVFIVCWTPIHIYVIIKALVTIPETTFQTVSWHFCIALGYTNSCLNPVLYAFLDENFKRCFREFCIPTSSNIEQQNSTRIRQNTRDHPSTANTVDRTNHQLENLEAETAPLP
# protocol text: Displacement of [3H]DAMGO from recombinant human mu-opioid receptor expressed in CHO cell membranes at 1 X 10^-5 M after 60 mins by liquid scintillation counting method relative to control
measured attribute: inhibition (%)

>>> test_value("NC(=O)c1ccc(Oc2ccc(CN3CCCC3c3cccc(F)c3)cc2)c2ccccc12 (centres undefined)")
0
>>> test_value("Cc1cc(C)cc(C2CCCN2Cc2ccc(Oc3ccc(C(N)=O)cc3)c(F)c2)c1 (centres undefined)")
95.3

[a] Cc1cc(C)cc(C2CCCN2Cc2ccc(Oc3ccc(C(N)=O)cc3F)cc2)c1 (racemic)
[b] Cc1ccccc1C1CCCN1Cc1ccc(Oc2ccc(C(N)=O)c3ccccc23)cc1 (centres undefined)
Lab note: record which item had the higher inhibition, a or b . Write down the label attached to your selection.
a

* * *

# study system: Delta-type opioid receptor (Homo sapiens, UniProt P41143)
# Sequence (P41143 whole entry): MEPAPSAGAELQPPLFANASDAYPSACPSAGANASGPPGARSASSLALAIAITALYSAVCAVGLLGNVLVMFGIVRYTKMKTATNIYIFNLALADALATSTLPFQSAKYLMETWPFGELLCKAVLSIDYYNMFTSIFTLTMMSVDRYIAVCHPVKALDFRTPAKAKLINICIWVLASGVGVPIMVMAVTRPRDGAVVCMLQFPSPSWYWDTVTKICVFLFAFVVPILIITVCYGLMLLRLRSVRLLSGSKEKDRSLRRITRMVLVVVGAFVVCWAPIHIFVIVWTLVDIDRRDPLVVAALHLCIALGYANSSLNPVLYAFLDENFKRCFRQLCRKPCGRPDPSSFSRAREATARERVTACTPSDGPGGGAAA
# protocol text: Displacement of [3H]DPDPE from recombinant human delta-opioid receptor expressed in HEK293 cell membranes at 1 X 10^-6 M after 60 mins by liquid scintillation counting method relative to control
measured attribute: inhibition (%)

Would you please look over these solved cases?
>>> test_value("Cc1cccc(C2CCCN2Cc2ccc(Oc3ccc(C(N)=O)c4ccccc34)cc2)c1 (stereo not given)")
0
>>> test_value("Cc1cc(C)cc(C2CCCN2Cc2ccc(Oc3ccc(C(N)=O)cc3F)c(F)c2)c1 (stereo not given)")
37.4

[1] Cc1cc(C)cc(C2CCCN2Cc2ccc(Oc3ccc(C(N)=O)cc3)c(F)c2)c1 (stereo not given)
[2] COc1ccc(C2CCCN2Cc2ccc(Oc3ccc(C(N)=O)c4ccccc34)cc2)cc1 (stereo not given)
[3] NC(=O)c1ccc(Oc2ccc(CN3CCCC3c3cccc(F)c3)cc2)c2ccccc12 (stereo not given)
Place the items in sequence of falling inhibition. List each label, following the requested order.
1, 3, 2

* * *

# study system: UniProtKB P35372
# protocol text: Displacement of [3H]DAMGO from recombinant human mu-opioid receptor expressed in CHO cell membranes after 60 mins by liquid scintillation counting method
pKi: −log10 of the molar value.
measured attribute: pKi

Would you please look over these solved cases?
>>> test_value("COc1ccc(C2CCCN2Cc2ccc(Oc3ccc(C(N)=O)c4ccccc34)cc2)cc1 (stereo not drawn)")
"< 5.00"
>>> test_value("Cc1cccc(C2CCCN2Cc2ccc(Oc3ccc(C(N)=O)c4ccccc34)cc2)c1 (stereo not drawn)")
"< 5.00"

Here is another molecule to look at.
Using the record for Cc1cc(C)cc(C2CCCN2Cc2ccc(Oc3ccc(C(N)=O)cc3F)c(Cl)c2)c1 (stereo not drawn) , report its pKi.
6.66
